assay: Single oral dose pharmacokinetic study in dogs, varying the testosterone dose (Example 1); format: in vivo, dogs (female beagles); details: female, beagle, dog, serum, dose 25 mg, single oral, time 24 h

>  <chem smiles>
C[C@]12CC[C@H]3[C@@H](CCC4=CC(=O)CC[C@@]43C)[C@@H]1CC[C@@H]2O

>  <concentration at 24 h (ng/mL)>
0.01

$$$$

----------
assay: Single oral dose pharmacokinetic study in dogs, varying the testosterone dose (Example 1); format: in vivo, dogs (female beagles); settings: female, beagle, dog, serum, dose 250 mg, single oral, time 4 h

>  <compound>
C[C@]12CC[C@H]3[C@@H](CCC4=CC(=O)CC[C@@]43C)[C@@H]1CC[C@@H]2O [Testosterone, testosterone]

>  <concentration at 4 h>
10.3 ng/mL

$$$$

----------
assay: Single oral dose pharmacokinetic study in dogs, varying the testosterone dose (Example 1); format: in vivo, dogs (female beagles); conditions: female, beagle, dog, serum, dose 100 mg, single oral, time 6 h
parameter measured: concentration at 6 h (ng/mL)

>  <chem smiles>
C[C@]12CC[C@H]3[C@@H](CCC4=CC(=O)CC[C@@]43C)[C@@H]1CC[C@@H]2O

>  <obs value>
3.57

$$$$

----------
experiment: Single oral dose pharmacokinetic study in dogs, varying the testosterone dose (Example 1); format: in vivo, dogs (female beagles); conditions: female, beagle, dog, serum, dose 25 mg, single oral, time 2 h

>  <compound>
C[C@]12CC[C@H]3[C@@H](CCC4=CC(=O)CC[C@@]43C)[C@@H]1CC[C@@H]2O [Testosterone, testosterone]

>  <concentration at 2 h, ng/mL>
4.25

$$$$

----------
Assay: Single oral dose pharmacokinetic study in dogs, varying the testosterone dose (Example 1)
Assay type: in vivo, dogs (female beagles)
Conditions: female, beagle, dog, serum, dose 100 mg, single oral, time 8 h
Protocol: A study using six dogs (female beagles) was made to obtain preliminary pharmacokinetic data following a single oral dose of the delivery system. The dogs were 13-24 months old, and weighed in the range of 10.4 to 13.2 kg. The dosing was done in four sequential one day intervals with a minimum two day rest period in between each interval. Blood was drawn immediately before the dose was administered. […]

>  <molecule>
C[C@]12CC[C@H]3[C@@H](CCC4=CC(=O)CC[C@@]43C)[C@@H]1CC[C@@H]2O [Testosterone, testosterone]

>  <concentration at 8 h>
4.22 ng/mL

$$$$

----------
test: Single oral dose pharmacokinetic study in dogs, varying the testosterone dose (Example 1); type: in vivo, dogs (female beagles); conditions: female, beagle, dog, serum, dose 25 mg, single oral, time 0.5 h

>  <chem smiles>
C[C@]12CC[C@H]3[C@@H](CCC4=CC(=O)CC[C@@]43C)[C@@H]1CC[C@@H]2O

>  <result unit>
ng/mL

>  <concentration at 0.5 h>
2.86

$$$$

----------
Assay: Single oral dose pharmacokinetic study in dogs, varying the testosterone dose (Example 1)
Format: in vivo, dogs (female beagles)
Details: female, beagle, dog, serum, dose 100 mg, single oral, time 4 h
Procedure: A study using six dogs (female beagles) was made to obtain preliminary pharmacokinetic data following a single oral dose of the delivery system. The dogs were 13-24 months old, and weighed in the range of 10.4 to 13.2 kg. The dosing was done in four sequential one day intervals with a minimum two day rest period in between each interval. Blood was drawn immediately before the dose was administered. […]

>  <compound>
C[C@]12CC[C@H]3[C@@H](CCC4=CC(=O)CC[C@@]43C)[C@@H]1CC[C@@H]2O [Testosterone, testosterone]

>  <result unit>
ng/mL

>  <concentration at 4 h>
5.22

$$$$
